test: P. aeruginosa biofilm formation inhibitors, primary screen, PAO1 strain, BacTiter-Glo luminescence, LB-PBS (AID 1144); conditions: 12 h, higher = more signal
Output Satisfied for z-score not less than 0.1; output Not satisfied otherwise.

Smiles Str	Discrete Label
[N-]=[N+]=NCc1ccccc1[C@@H]1OC(c2ccc(OCCCO)cc2)=N[C@]1(Cc1ccccc1)C(=O)N1CCOCC1	Satisfied
O=C1[C@H]2[C@H]3[C@H](O)[C@H](O)CC(=NO[C@@H]4O[C@H](CO)[C@@H](O)[C@H](O)[C@H]4O)[C@H]3CC[C@H]2C(=O)N1C1CCCCC1	Satisfied
O=C(NN=C1C[C@@H](O)[C@@H](O)[C@@H]2[C@@H]3C(=O)N(c4cccc(Oc5ccccc5)c4)C(=O)[C@@H]3CC[C@H]12)OCc1ccccc1	Satisfied
O=C1O[C@@H](c2ccccc2)[C@@H](c2ccccc2)N2[C@@H](c3ccc(OCCO)cc3)[C@]3(C(=O)Nc4ccccc43)[C@@H](C(=O)N3CCN(c4ncccn4)CC3)[C@H]12	Satisfied
C#CCCCON=C1C[C@@H](O)[C@@H](O)[C@@H]2[C@@H]3C(=O)N(c4cccc(Oc5ccccc5)c4)C(=O)[C@@H]3CC[C@@H]12	Not satisfied
CN(C)C(=O)[C@@]1(Cc2ccccc2)N=C(c2ccc(OCCCO)cc2)O[C@H]1c1ccccc1CN=[N+]=[N-]	Satisfied
CC(C)=CCCC(C)=CCON=C1[C@H]2CCn3c(=O)n(Cc4cc5c(cc4Cl)OCO5)c(=O)n3[C@H]2[C@H](O)[C@@H]2O[C@H]12	Satisfied
C[C@@H](c1ccccc1)N1C(=O)[C@H]2[C@H]3[C@H](O)C=CC(=O)[C@@H]3CC[C@H]2C1=O	Satisfied
COc1ccc([Si](C)(C)[C@H]2[C@H](CC(=O)N3CCC[C@H]3CO)O[C@@]3(C(=O)N(Cc4cccc(N5C(=O)COc6ccccc65)c4)c4ccccc43)[C@@H]2C)cc1	Not satisfied
CO[C@@H]1COC(=O)[C@@H]2CCCN2C(=O)[C@@H](C)COC(=O)[C@H](COCc2ccccc2)NC(=O)CC=C[C@H]1C	Not satisfied
CC(=O)OC[C@H]1O[C@@H](ON=C(C)CCN2CCc3nc(-c4ccccc4)c(-c4ccccc4)cc3C2)[C@H](OC(C)=O)[C@@H](OC(C)=O)[C@@H]1OC(C)=O	Satisfied
COCCOC(=O)N1C(=O)[C@@]2(c3cc(C#CCNC(N)=O)ccc31)[C@H](c1ccccc1OCCO)N1[C@H](c3ccccc3)[C@H](c3ccccc3)OC(=O)[C@H]1[C@@H]2C(=O)N1CCN(c2ncccn2)CC1	Not satisfied
O=C1[C@H]2[C@H]3[C@H](O)[C@H](O)CC(=NOCc4ccccc4)[C@H]3CC[C@H]2C(=O)N1C[C@@H]1CCCO1	Satisfied

====

target: Luciferin 4-monooxygenase (Photinus pyralis) (UniProt P08659); assay: firefly luciferase enzyme inhibitors, primary screen, biochemical, luminescence, purified enzyme, 2006 set (AID 1141); conditions: SteadyGlo luminescence, 30 min, higher = more signal, called active from +8 up or from −8 down;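 also: cell-free assay with purified firefly luciferase at 100 ng per well in PBS; test concentration not given here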
Sequence (P08659 whole entry, looked up): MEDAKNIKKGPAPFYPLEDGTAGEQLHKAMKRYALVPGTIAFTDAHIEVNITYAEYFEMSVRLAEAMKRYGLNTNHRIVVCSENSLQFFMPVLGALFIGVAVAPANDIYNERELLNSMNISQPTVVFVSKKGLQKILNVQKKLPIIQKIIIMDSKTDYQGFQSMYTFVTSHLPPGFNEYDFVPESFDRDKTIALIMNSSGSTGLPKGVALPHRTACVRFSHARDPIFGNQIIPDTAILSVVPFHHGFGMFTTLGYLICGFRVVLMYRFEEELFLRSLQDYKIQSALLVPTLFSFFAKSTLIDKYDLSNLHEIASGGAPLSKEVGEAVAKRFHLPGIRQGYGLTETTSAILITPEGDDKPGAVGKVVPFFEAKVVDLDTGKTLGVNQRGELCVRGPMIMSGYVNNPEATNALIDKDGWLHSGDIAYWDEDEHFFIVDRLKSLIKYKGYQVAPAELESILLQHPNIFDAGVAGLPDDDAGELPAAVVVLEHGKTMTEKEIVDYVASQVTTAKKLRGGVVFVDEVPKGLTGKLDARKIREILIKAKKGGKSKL
Output Condition met for z-score not less than 0.2; output Condition not met otherwise.

                                    molecule                                 tested_on     discrete_label
 0  CCN(CC)c1ccc(N2CC=CC34O[C@@H]5/C=C\CCC(C)OC(=O)C5[C@H]3C(=O)N(CCCO)[C@@H]4C2=O)cc1 (some centres undefined)  Luciferin 4-monooxygenase (Photinus pyralis) (UniProt P08659)  Condition not met
 1  CC(C)CON=C1C[C@@H](O)[C@@H](O)[C@@H]2[C@@H]3C(=O)N([C@@H](C)c4ccccc4)C(=O)[C@@H]3CC[C@H]12  Luciferin 4-monooxygenase (Photinus pyralis) (UniProt P08659)      Condition met
 2  CCOC(=O)NN=C1C[C@@H](O)[C@@H](O)[C@@H]2[C@@H]3C(=O)N(C(C)(C)C)C(=O)[C@@H]3CC[C@@H]12  Luciferin 4-monooxygenase (Photinus pyralis) (UniProt P08659)      Condition met
 3  Cc1ccc(S(=O)(=O)N[C@@H]2COC(=O)[C@H](C)COC(=O)CC=C[C@H]2C)cc1  Luciferin 4-monooxygenase (Photinus pyralis) (UniProt P08659)  Condition not met
 4  COc1ccc(O[C@H]2C=C[C@@H](c3ccccc3)O[C@@H]2COC(=O)CCC(C)=NO[C@@H](C)c2cc(-c3c(C)cc(C)cc3C)no2)cc1  Luciferin 4-monooxygenase (Photinus pyralis) (UniProt P08659)      Condition met
 5  C[C@H]1Cc2c(-c3ccccc3)nc3c(c2CO1)CN(CCOc1ccccc1)CC3  Luciferin 4-monooxygenase (Photinus pyralis) (UniProt P08659)  Condition not met
 6  CCN1C(=O)[C@H]2[C@H]3[C@H](O)[C@H](O)CC(=NO[C@@H]4O[C@H](CO)[C@@H](O)[C@H](O)[C@H]4O)[C@@H]3CC[C@H]2C1=O  Luciferin 4-monooxygenase (Photinus pyralis) (UniProt P08659)  Condition not met
 7  O=C(CS)NCCCCCNC(=O)[C@@H]1C[C@@H]2C(=O)N[C@@H](Cc3ccccc3)C(=O)N2[C@@H]1c1ccc(O)cc1  Luciferin 4-monooxygenase (Photinus pyralis) (UniProt P08659)  Condition not met
 8  COc1ccccc1CN1C(=O)c2ccccc2[C@@]2(Cc3ccccc3N(C(C)C)C2=O)[C@@H]1c1ccc(CO)cc1  Luciferin 4-monooxygenase (Photinus pyralis) (UniProt P08659)  Condition not met
 9  COC(=O)[C@@H]1CC[C@H](C)[C@@H](c2ccc(C)cc2)N1C(=O)c1ccc(C=NOC[C@@H](O)COCc2ccco2)cc1  Luciferin 4-monooxygenase (Photinus pyralis) (UniProt P08659)  Condition not met
10  COc1ccc(O[C@H]2C=C[C@@H](c3ccccc3)O[C@@H]2COC(=O)CCC(C)=NOC[C@@H](C)[C@H](OCc2ccccc2)C(C)C)cc1  Luciferin 4-monooxygenase (Photinus pyralis) (UniProt P08659)      Condition met
11  CCOC(=O)NN=C1C[C@@H](O)[C@@H](O)[C@@H]2[C@@H]3C(=O)N(C[C@@H]4CCCO4)C(=O)[C@@H]3CC[C@@H]12  Luciferin 4-monooxygenase (Photinus pyralis) (UniProt P08659)  Condition not met
12  CO[C@H]1COC(=O)[C@H](C)COC(=O)CC=C[C@@H](C)[C@H](OC)COC(=O)CC=C[C@@H]1C  Luciferin 4-monooxygenase (Photinus pyralis) (UniProt P08659)  Condition not met
13  CCN1C(=O)[C@H]2[C@H]3[C@H](O)[C@H](O)CC(=NOC(C)CN4CCCCc5nc(C)c(C)cc54)[C@@H]3CC[C@H]2C1=O (some centres undefined)  Luciferin 4-monooxygenase (Photinus pyralis) (UniProt P08659)  Condition not met
14  CCc1cc2c(nc1CC)CCN(CCC(C)=NOC[C@@H](O)COCc1ccco1)C2  Luciferin 4-monooxygenase (Photinus pyralis) (UniProt P08659)  Condition not met
15  CCOC(=O)C[C@H]1[C@H](OC(=O)c2cc3ccccc3oc2=O)[C@@H](NC(=O)c2ccc3ccccc3n2)c2cc(OCCCO)ccc2N1C(=O)c1ccccc1  Luciferin 4-monooxygenase (Photinus pyralis) (UniProt P08659)      Condition met
16  CCN1C(=O)[C@H]2[C@H]3[C@H](O)[C@H](O)CC(=NOC[C@@H](C)[C@H](OCc4ccccc4)C(C)C)[C@@H]3CC[C@H]2C1=O  Luciferin 4-monooxygenase (Photinus pyralis) (UniProt P08659)      Condition met
17       COC(=O)[C@@H]1CCCN1C(=O)[C@@H](C)CO  Luciferin 4-monooxygenase (Photinus pyralis) (UniProt P08659)  Condition not met
18  CC(CCC(=O)OC[C@H]1O[C@H](C#Cc2ccccc2)C=C[C@@H]1Oc1ccc(C)cc1)=NOC[C@@H](O)COCc1ccco1  Luciferin 4-monooxygenase (Photinus pyralis) (UniProt P08659)  Condition not met
19  O=C1[C@H]2[C@H]3[C@H](O)[C@H](O)CC(=NOCc4ccccc4)[C@@H]3CC[C@H]2C(=O)N1C1CCCCC1  Luciferin 4-monooxygenase (Photinus pyralis) (UniProt P08659)  Condition not met
20  CC(C)CN1CCc2nc(-c3ccccc3)c3c(c2CC1)CO[C@@H](C)C3  Luciferin 4-monooxygenase (Photinus pyralis) (UniProt P08659)  Condition not met
21  CO[C@H]([C@@H](C)[C@H](OC)c1ccccc1)[C@H](C)[C@@H](OC)[C@H](C)C(C)=O  Luciferin 4-monooxygenase (Photinus pyralis) (UniProt P08659)  Condition not met
22  C=CCN1C(=O)[C@]2(O[C@H](CCn3cc(CCO)nn3)[C@@H]([Si](C)(C)c3ccc(OC)cc3)[C@@H]2C)c2cc(N3CCOC3=O)ccc21  Luciferin 4-monooxygenase (Photinus pyralis) (UniProt P08659)  Condition not met
23  CC(C)NC(=O)[C@@]1(c2ccc([N+](=O)[O-])cc2)CC(=O)N(CC23CC4CC(CC(C4)C2)C3)[C@@H]1c1ccc(CO)cc1I  Luciferin 4-monooxygenase (Photinus pyralis) (UniProt P08659)      Condition met
24  COC(=O)CC=C[C@@H](C)[C@@H](C=NO[C@H](C)c1cn([C@@H]2COC[C@H]2O)nn1)OC  Luciferin 4-monooxygenase (Photinus pyralis) (UniProt P08659)  Condition not met
25  CC1CC/C=C\[C@H]2OC34C=CCN(C(C)C)C(=O)[C@H]3N(CCCO)C(=O)[C@@H]4C2C(=O)O1 (some centres undefined)  Luciferin 4-monooxygenase (Photinus pyralis) (UniProt P08659)  Condition not met
26  CO[C@H]1O[C@H](CO)[C@@H](OC(=O)Nc2ccc3c(c2)OCO3)[C@H](OC(=O)Nc2ccccc2-c2ccccc2)[C@@H]1OC(=O)Nc1ccccc1-c1ccccc1  Luciferin 4-monooxygenase (Photinus pyralis) (UniProt P08659)  Condition not met
27  Cc1cc2c(c(=O)o1)[C@H](O)[C@H]1O[C@H]1C2=O  Luciferin 4-monooxygenase (Photinus pyralis) (UniProt P08659)  Condition not met
28  O=C(NN=C1C[C@@H](O)[C@@H](O)[C@@H]2[C@@H]3C(=O)N(c4cccc(Oc5ccccc5)c4)C(=O)[C@@H]3CC[C@@H]12)OCc1ccccc1  Luciferin 4-monooxygenase (Photinus pyralis) (UniProt P08659)      Condition met
